- ASSAY_SYSTEM: mMC3R (Mus musculus, UniProt P33033)
- Sequence (P33033 whole entry): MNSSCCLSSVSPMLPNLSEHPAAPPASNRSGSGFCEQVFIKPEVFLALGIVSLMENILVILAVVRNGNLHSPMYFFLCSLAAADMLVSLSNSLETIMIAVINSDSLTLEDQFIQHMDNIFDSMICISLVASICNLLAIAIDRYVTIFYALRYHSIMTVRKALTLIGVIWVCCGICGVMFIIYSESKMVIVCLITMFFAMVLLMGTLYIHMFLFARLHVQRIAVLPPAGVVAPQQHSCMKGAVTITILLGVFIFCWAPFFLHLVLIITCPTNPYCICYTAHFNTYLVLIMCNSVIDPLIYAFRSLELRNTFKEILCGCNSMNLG
- TEST: cell-based
- Assay type: cell-based
Square brackets hold non-standard residues; d marks the D form. Peptide text beside a SMILES is read from it. * marks the point of attachment. Bta = N[C@@H](Cc1csc2ccccc12)C(=O)O; Tic = O=C(O)[C@@H]1Cc2ccccc2CN1; 2Thi = N[C@@H](Cc1cccs1)C(=O)O; Octanoyl = CCCCCCCC(=O)*
ATTRIBUTE_MEASURED: EC50

# get_value(readout='EC50', item= CC(=O)N[C@@H](Cc1c[nH]c2ccccc12)C(=O)N[C@H](Cc1ccccc1)C(=O)N[C@@H](CCCNC(=N)N)C(=O)N[C@@H](Cc1csc2ccccc12)C(N)=O [Peptide 25, Ac-Trp-DPhe-Arg-3Bal-NH2] (Ac-W[dF]R[Bta]-NH2) )
> 100 µM

# get_value(readout='EC50', item= CC(=O)N[C@@H](Cc1cccs1)C(=O)N[C@H](Cc1ccccc1)C(=O)N[C@@H](CCCNC(=N)N)C(=O)N[C@@H](Cc1csc2ccccc12)C(N)=O [Peptide 27, Ac-2Thi-DPhe-Arg-3Bal-NH2] (Ac-[2Thi][dF]R[Bta]-NH2) )
> 100 µM

# get_value(readout='EC50', item= CCCCCCCC(=O)N[C@@H](Cc1c[nH]cn1)C(=O)N[C@H](Cc1ccccc1)C(=O)N[C@@H](CCCNC(=N)N)C(=O)N1Cc2ccccc2C[C@H]1C(N)=O [Peptide 4, Octanoyl-His-DPhe-Arg-Tic-NH2] (Octanoyl-H[dF]R[Tic]-NH2) )
6.9 µM

All values here come from paper PMC6261661.
